These entries and their values trace back to paper doi:10.1101/2020.08.03.235622v1.

# System: P. aeruginosa PA103 T3SS
# Assay type: cell-based, Pseudomonas aeruginosa
# study-conditions: read-out: IC50, ExoU secretion (PA, Psc/Ysc)
pIC50: −log10 of the molar value.
outcome-measure: pIC50

- substance: "Propylamine, Benzylamine, L-Leu, L-Ile, D-Leu, and D-Phe (PBLLDD) (head to tail) [4EpDN]"
  outcome-measure: "pIC50"
  value: 5.41
